B1: GvpF fused to NGFP or CGFP (split-GFP) [Halobacterium salinarum PHH1] / GvpA fused to NGFP or CGFP (split-GFP) [Halobacterium salinarum PHH1] (parent complex)
chain 1: MTENLYTYGIIEQEDLELDVEGVAGAEQVYTVDYKTLSAVVSDIDTTDPERTDEDVEAHNNVLQEVLKHEEERTVVPMSFGMAFKSARTLKGVLRGARRALRSTLNDIEGTVELGVKILGPGDDTVPREEIQENVTDQLADLSINETENDLFTDRLIINKSYLVDFEKRDAFDSAIDDVEAEYDELTIQYTGPWPPYNFVDIHIGAEQQQGGR
chain 2: MAQPDSSGLAEVLDRVLDKGVVVDVWARVSLVGIEILTVEARVVAASVDTFLHYAEEIAKIEQAELTAGAEAAPEA

variants of: B1; experiment: split-GFP; in Hfx. volcanii; FN fusion protein used as interaction partner; two biological and three technical replicates; parent: 20; read off a plot
Please provide measured response for the entries that follow.

Worked cases, response given:
mutant: chain 2 L52E
response: ~19 relative fluorescence

mutant: chain 2 A64Y
response: ~14 relative fluorescence

mutant: chain 2 K19A
response: ~9.8 relative fluorescence

mutant: chain 2 R15A
response: ~5.3 relative fluorescence

mutant: chain 2 E57A
response: ~12 relative fluorescence

mutant: chain 2 R42E
response: ~12 relative fluorescence

Hi! Can you tell me response for each of these variants?
1. chain 2 E11A
2. chain 2 G33V
3. chain 2 K19D
4. chain 2 D14A

Solution:
["~11 relative fluorescence", "~5.6 relative fluorescence", "~5.4 relative fluorescence", "~13 relative fluorescence"]

Hi! Can you tell me response for each of these variants?
1. chain 2 W26A
2. chain 2 A45Y

Solution:
["~19 relative fluorescence", "~9 relative fluorescence"]
